assay: in vitro; settings: PAMPA
Description: Effective permeability of compound at 100 ug/ml incubated for 20 hrs by PAMPA-BBB assay
Response field class: string, computed from recorded Papp at 20 h, 100 ug/ml by ranges low value: < 4 ×10⁻⁶ cm/s; medium value: ≥ 4 ×10⁻⁶ cm/s and < 6 ×10⁻⁶ cm/s; high value: ≥ 6 ×10⁻⁶ cm/s

Input line: Which band does CNC(=O)c1sc(-c2ccnc(NC(=O)C3CC3)c2)nc1OCCOCc1cn(CCNc2c3c(nc4cc(Cl)ccc24)CCCC3)nn1 fall in?
Output line: medium value

Input line: Hey, which category is CCn1cc(C(=O)O)c(=O)c2ccc(-n3cccc3)cc21 in, do you know?
Output line: low value

Input line: Category lookup for the compound CNC(=O)c1sc(-c2ccnc(NC(=O)CNCCCCNc3c4c(nc5ccccc35)CCCC4)c2)nc1OCC1CC1
Output line: high value

Input line: # bin lookup: classify CNC(=O)c1sc(-c2ccnc(NC(=O)CNCCNc3c4c(nc5ccccc35)CCCC4)c2)nc1OCC1CC1 by its Papp at 20 h, 100 ug/ml
Output line: high value

Input line: Exercise: read the entry NC(=O)c1sc(-c2ccnc(NC(=O)CNCCNc3c4c(nc5ccccc35)CCCC4)c2)nc1OCC1CC1 and state which class it falls under.
Output line: medium value

Input line: Any idea which band CNC(=O)c1sc(-c2ccnc(NC(=O)CNCCNc3c4c(nc5ccc(OC)cc35)CCCC4)c2)nc1OCC1CC1 is in?
Output line: medium value

Input line: Field: class (Papp at 20 h, 100 ug/ml) — entry: CCn1cc(C(=O)O)c(=O)c2cc(F)c(N3CCNC(C)C3)c(F)c21 (centres undefined)
Output line: low value

Input line: # classify by Papp at 20 h, 100 ug/ml band: CNC(=O)c1sc(-c2ccnc(NC(=O)C3CC3)c2)nc1OCCc1cn(CCNc2c3c(nc4cc(Cl)ccc24)CCCC3)nn1
Output line: medium value

Input line: Which Papp at 20 h, 100 ug/ml category applies to CNC(=O)c1sc(-c2ccnc(NC(=O)C3CC3)c2)nc1OCCOCc1cn(CCNc2c3c(nc4ccccc24)CCCC3)nn1 here?
Output line: medium value

----------
Here's a batch of compounds along with measured IC50 for Glycogen synthase kinase-3 beta (Homo sapiens).
# number only, unit nM dropped from output

Input line: Item CC(=O)Nc1cc(-c2nc(OCC3CC3)c(C(=O)NCCCNc3c4c(nc5ccccc35)CCCC4)s2)ccn1 : provide IC50
Output line: 92.8

Input line: Return value of IC50 for input NC(=O)c1sc(-c2ccnc(NC(=O)C3CC3)c2)nc1OCCc1cn(-c2c3c(nc4ccccc24)CCCC3)nn1 , no commentary.
Output line: 6.5

Input line: In one line, give reported IC50 of the entry CNC(=O)c1sc(-c2ccnc(NC(=O)CNCCNc3c4c(nc5ccccc35)CCCC4)c2)nc1OCC1CC1 .
Output line: 22

Input line: Respond only with IC50 recorded for CNC(=O)c1sc(-c2ccnc(NC(=O)C3CC3)c2)nc1OCCc1cn(CCNc2c3c(nc4ccccc24)CCCC3)nn1
Output line: 72

Input line: Look up and state reported IC50 for CNC(=O)c1sc(-c2ccnc(NC(=O)CNCCNc3c4c(nc5ccccc35)CCCC4)c2)nc1OC
Output line: 41.1

Input line: Give recorded IC50. CCNC(=O)c1sc(-c2ccnc(NC(=O)CNCCNc3c4c(nc5ccccc35)CCCC4)c2)nc1OCC1CC1
Output line: 114

Input line: Specify IC50 for CNC(=O)c1sc(-c2ccnc(NC(=O)CNCCNc3c4c(nc5ccccc35)CCCC4)c2)nc1OCC(C)C and stop.
Output line: 132

Input line: Report measured IC50; entry is NC(=O)c1sc(-c2ccnc(NC(=O)CNCCNc3c4c(nc5ccccc35)CCCC4)c2)nc1OCC1CC1
Output line: 42.6

----------
target: UniProt:P22303
pIC50: −log10 of the molar value.
Cut-off 7 on pIC50, inclusive. At or above means t; below means f.

Input line: Evaluate CNC(=O)c1sc(-c2ccnc(NC(=O)C3CC3)c2)nc1OCCCc1cn(CCNc2c3c(nc4ccccc24)CCCC3)nn1 : pIC50 at minimum 7?
Output line: f

Input line: Entry CNC(=O)c1sc(-c2ccnc(NC(=O)CNCCNc3c4c(nc5ccccc35)CCCC4)c2)nc1OC(C)C : is its pIC50 no less than 7?
Output line: f

Input line: Is it the case that CNC(=O)c1sc(-c2ccnc(NC(=O)CNCCNc3c4c(nc5cc(Cl)ccc35)CCCC4)c2)nc1OCC1CC1 has pIC50 reaching or exceeding 7?
Output line: t

Input line: Form field: pIC50 at least 7? Entry: O=C(NCCCNc1c2c(nc3ccccc13)CCCC2)c1sc(-c2ccnc(NC(=O)C3CC3)c2)nc1OCC1CC1
Output line: f

Input line: State whether the measured pIC50 reaches 7, counting equality as reaching it, for CNC(=O)c1sc(-c2ccnc(NC(=O)CNCCCCNc3c4c(nc5ccccc35)CCCC4)c2)nc1OCC1CC1
Output line: t

Input line: Given CNC(=O)c1sc(-c2ccnc(NC(=O)C3CC3)c2)nc1OCCOCc1cn(CCNc2c3c(nc4cc(Cl)ccc24)CCCC3)nn1 , state whether its pIC50 is at least 7.
Output line: t

Input line: Say whether CC(=O)Nc1cc(-c2nc(OCC3CC3)c(C(=O)NCCCNc3c4c(nc5ccccc35)CCCC4)s2)ccn1 shows pIC50 of 7 or more.
Output line: f

----------
Assign IC50 to each entry below.
Dear colleague, please return just the value in nM, with no unit written.

Input line: Determine reported IC50 for O=C(NCCCNc1c2c(nc3ccccc13)CCCC2)c1sc(-c2ccnc(NC(=O)C3CCC3)c2)nc1OCC1CC1 ; test system: Acetylcholinesterase (Homo sapiens).
Sequence (P22303 whole entry): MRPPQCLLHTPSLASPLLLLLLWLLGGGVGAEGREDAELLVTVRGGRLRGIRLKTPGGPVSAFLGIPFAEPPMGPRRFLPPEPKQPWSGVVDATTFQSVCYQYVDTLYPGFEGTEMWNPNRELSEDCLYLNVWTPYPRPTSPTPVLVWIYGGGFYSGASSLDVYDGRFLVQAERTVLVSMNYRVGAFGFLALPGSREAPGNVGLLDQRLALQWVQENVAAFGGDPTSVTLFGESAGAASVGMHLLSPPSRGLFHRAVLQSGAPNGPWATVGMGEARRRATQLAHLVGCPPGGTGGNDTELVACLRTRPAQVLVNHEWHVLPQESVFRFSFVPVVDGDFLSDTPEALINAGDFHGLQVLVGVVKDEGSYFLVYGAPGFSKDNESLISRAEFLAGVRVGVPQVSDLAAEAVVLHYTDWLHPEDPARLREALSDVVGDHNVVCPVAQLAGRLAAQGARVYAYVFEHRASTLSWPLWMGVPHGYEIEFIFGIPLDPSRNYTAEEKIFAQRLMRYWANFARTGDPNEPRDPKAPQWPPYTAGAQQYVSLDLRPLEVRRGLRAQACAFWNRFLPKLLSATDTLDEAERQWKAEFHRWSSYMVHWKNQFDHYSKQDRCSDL
Output line: 295

Input line: Print Acetylcholinesterase (Homo sapiens) IC50 for CNC(=O)c1sc(-c2ccnc(NC(=O)CNCCNc3c4c(nc5ccccc35)CCCC4)c2)nc1OC .
Output line: 97.4

----------
Here's a batch of compounds along with measured pIC50 for Cholinesterase (Homo sapiens, UniProt P06276).
Just so you know, pIC50 here is -log10 of the concentration in molar units; reply with that number alone.

Input line: Provide the reported pIC50 (system: Cholinesterase (Homo sapiens, UniProt P06276)) for CNC(=O)c1sc(-c2ccnc(NC(=O)CNCCNc3c4c(nc5cc(Cl)ccc35)CCCC4)c2)nc1OCC1CC1
Sequence (P06276 whole entry): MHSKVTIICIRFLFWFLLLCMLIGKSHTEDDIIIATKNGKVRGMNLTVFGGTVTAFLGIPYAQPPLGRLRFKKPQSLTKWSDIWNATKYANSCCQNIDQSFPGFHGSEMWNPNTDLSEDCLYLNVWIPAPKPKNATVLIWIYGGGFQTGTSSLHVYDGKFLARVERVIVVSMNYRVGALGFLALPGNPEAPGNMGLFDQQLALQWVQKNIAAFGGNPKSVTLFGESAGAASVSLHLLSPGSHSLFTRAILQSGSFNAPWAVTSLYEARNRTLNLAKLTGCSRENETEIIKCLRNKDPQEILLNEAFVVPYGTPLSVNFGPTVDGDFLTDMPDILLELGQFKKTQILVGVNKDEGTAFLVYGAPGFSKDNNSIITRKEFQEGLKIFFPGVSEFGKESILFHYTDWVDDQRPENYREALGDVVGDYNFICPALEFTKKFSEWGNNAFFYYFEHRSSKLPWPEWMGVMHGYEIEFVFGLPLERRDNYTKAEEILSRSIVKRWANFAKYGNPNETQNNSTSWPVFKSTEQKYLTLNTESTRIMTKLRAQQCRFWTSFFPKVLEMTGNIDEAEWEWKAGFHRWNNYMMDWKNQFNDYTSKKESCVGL
Output line: 6.21

Input line: Send back Cholinesterase (Homo sapiens, UniProt P06276) pIC50 of CNC(=O)c1sc(-c2ccnc(NC(=O)C3CC3)c2)nc1OCCCc1cn(CCNc2c3c(nc4ccccc24)CCCC3)nn1 only.
Output line: 6.77

Input line: Tell me pIC50 of CNC(=O)c1sc(-c2ccnc(NC(=O)CNCCNc3c4c(nc5ccccc35)CCCC4)c2)nc1OC(C)C when tested on Cholinesterase (Homo sapiens, UniProt P06276).
Output line: 6.48

Input line: Return reported pIC50 for target or system Cholinesterase (Homo sapiens, UniProt P06276), item CNC(=O)c1sc(-c2ccnc(NC(=O)CNCCCCCCNc3c4c(nc5ccccc35)CCCC4)c2)nc1OCC1CC1 .
Output line: 8.09

Input line: Please look at O=C(NCCCNc1c2c(nc3ccccc13)CCCC2)c1sc(-c2ccnc(NC(=O)C3CC3)c2)nc1OCC1CC1 and tell me its recorded pIC50 on Cholinesterase (Homo sapiens, UniProt P06276).
Output line: 6.67

Input line: Report pIC50 on Cholinesterase (Homo sapiens, UniProt P06276) for this entry: NC(=O)c1sc(-c2ccnc(NC(=O)CNCCNc3c4c(nc5ccccc35)CCCC4)c2)nc1OCC1CC1
Output line: 6.72

Input line: Look up and report pIC50, with Cholinesterase (Homo sapiens, UniProt P06276) as system, for CNC(=O)c1sc(-c2ccnc(NC(=O)C3CC3)c2)nc1OCCOCc1cn(-c2c3c(nc4ccccc24)CCCC3)nn1
Output line: 6.70

Input line: Print Cholinesterase (Homo sapiens, UniProt P06276) pIC50 for CNC(=O)c1sc(-c2ccnc(NC(=O)CNCCNc3c4c(nc5ccccc35)CCCC4)c2)nc1OC .
Output line: 6.58

Input line: Enter pIC50 (test system Cholinesterase (Homo sapiens, UniProt P06276)) for CCCNC(=O)c1sc(-c2ccnc(NC(=O)CNCCNc3c4c(nc5ccccc35)CCCC4)c2)nc1OCC1CC1
Output line: 7.05

Input line: Lab note: Cholinesterase (Homo sapiens, UniProt P06276) assay, enter pIC50 for CNC(=O)c1sc(-c2ccnc(NC(=O)C3CC3)c2)nc1OCCc1cn(-c2c3c(nc4ccccc24)CCCC3)nn1 here
Output line: 6.22

Input line: Specify pIC50 for O=C(NCCCNc1c2c(nc3ccccc13)CCCC2)c1sc(-c2ccnc(NC(=O)C3CCC3)c2)nc1OCC1CC1 , system Cholinesterase (Homo sapiens, UniProt P06276).
Output line: 7.51

Input line: State measured pIC50 of the compound CNC(=O)c1sc(-c2ccnc(NC(=O)C3CC3)c2)nc1OCCc1cn(CCNc2c3c(nc4ccccc24)CCCC3)nn1 with Cholinesterase (Homo sapiens, UniProt P06276).
Output line: 6.52

Input line: Look up and report measured pIC50 (Cholinesterase (Homo sapiens, UniProt P06276)) for the following compound: CNC(=O)c1sc(-c2ccnc(NC(=O)CNCCNc3c4c(nc5ccccc35)CCCC4)c2)nc1OCC(C)C
Output line: 6.21

Input line: Report its pIC50 with Cholinesterase (Homo sapiens, UniProt P06276) as the test system: CC(=O)Nc1cc(-c2nc(OCC3CC3)c(C(=O)NCCCNc3c4c(nc5ccccc35)CCCC4)s2)ccn1
Output line: 6.76

Input line: Look up and report measured pIC50 (Cholinesterase (Homo sapiens, UniProt P06276)) for the following compound: CNC(=O)c1sc(-c2ccnc(NC(=O)CNCCCCCCCCNc3c4c(nc5ccccc35)CCCC4)c2)nc1OCC1CC1
Output line: 8.49

Input line: Report the value of pIC50 obtained on Cholinesterase (Homo sapiens, UniProt P06276) for CNC(=O)c1sc(-c2ccnc(NC(=O)CNCCNc3c4c(nc5ccccc35)CCCC4)c2)nc1OCC1CC1 .
Output line: 6.82

Input line: Give pIC50 for CNC(=O)c1sc(-c2ccnc(NC(=O)C3CC3)c2)nc1OCCc1cn(CCNc2c3c(nc4ccc(OC)cc24)CCCC3)nn1 tested on Cholinesterase (Homo sapiens, UniProt P06276).
Output line: 7.43

Input line: Provide pIC50, tested on Cholinesterase (Homo sapiens, UniProt P06276), for CNC(=O)c1sc(-c2ccnc(NC(=O)C3CC3)c2)nc1OCCOCc1cn(CCNc2c3c(nc4ccccc24)CCCC3)nn1 .
Output line: 6.44

Input line: Enter recorded pIC50 with Cholinesterase (Homo sapiens, UniProt P06276) for CNC(=O)c1sc(-c2ccnc(NC(=O)CNCCNc3c4c(nc5ccccc35)CCCC4)c2)nc1OCC1CCC1 here.
Output line: 6.56

Input line: State measured pIC50 of the compound CNC(=O)c1sc(-c2ccnc(NC(=O)CNCCNc3c4c(nc5ccccc35)CCCC4)c2)nc1OCC(C)(C)C with Cholinesterase (Homo sapiens, UniProt P06276).
Output line: 6.63

Input line: GET pIC50 where system = Cholinesterase (Homo sapiens, UniProt P06276) and item = CCNC(=O)c1sc(-c2ccnc(NC(=O)CNCCNc3c4c(nc5ccccc35)CCCC4)c2)nc1OCC1CC1
Output line: 6.29

Input line: Fill: pIC50 (Cholinesterase (Homo sapiens, UniProt P06276)) for this compound CNC(=O)c1sc(-c2ccnc(NC(=O)CNCCCCNc3c4c(nc5ccccc35)CCCC4)c2)nc1OCC1CC1
Output line: 7.32

These data points were gathered from ChEMBL document CHEMBL4706588.
